Each record here notes measured growth.
# Tested on: SK-MEL-28 melanoma
# Protocol Notes: NCI-60 one-dose screen, 48 h (100 = growth as untreated, 0 = no growth, -100 = all killed)
# Setup Conditions: 10 µM unless noted
This is part of a sample that, as a whole, favours compounds with a hit. Of some 83,000 tested, about 20% had one in any assay.
The reply should be a number in %, with the unit left off.

Take a look at these entries with their results.
Input: Param request: growth | system SK-MEL-28 melanoma | item "Cc1c2c(cc[n+]1Cc1ccccc1)c1ccc(OCC3CCCCC3)cc1n2CC1CCCCC1"
Output: -95.8

Input: Param request: growth | system SK-MEL-28 melanoma | item "CC(C)[N+](C)(CCOC(COc1ccccc1)COc1ccccc1)C(C)C"
Output: 96.6

Input: Param request: growth | system SK-MEL-28 melanoma | item CCN(CC)CCCC(Nc1c2ccc(Cl)cc2nc2ccc(OC)cc12)c1ccc(Cl)cc1 (stereo not given)
Output: -88.7

Input: Param request: growth | system SK-MEL-28 melanoma | item "C[C@]12C[C@H]1CC[C@]1(C)[C@@H]2CC[C@@]23C[C@H](CC[C@H]21)[C@@](O)(CO)C3"
Output: 105

With those in mind, consider the next compound.
Input: Param request: growth | system SK-MEL-28 melanoma | item CC1=NNC(=O)C1CCC(=O)N/N=C(\C)c1ccc2ccccc2c1 (stereo not given)
Output: 109
